Assay: Color classification according to the Munsell color system
Format: physicochemical
Details: Munsell color system
Exercise: state measured Munsell Classification for each of the molecules provided.

Determine from records and report Munsell Classification for CN(C)c1ccc(O)c2c1C[C@H]1C[C@H]3[C@H](N(C)C)C(O)=C(C(N)=O)C(=O)[C@@]3(O)C(O)=C1C2=O [Minocycline Base, reference compound]
7.5Y/9/10 NN

Consider the molecule CCO.C[C@H]1c2cccc(O)c2C(=O)C2=C(O)[C@]3(O)C(=O)C(C(N)=O)=C(O)[C@@H](N(C)C)[C@@H]3[C@@H](O)[C@@H]21.C[C@H]1c2cccc(O)c2C(=O)C2=C(O)[C@]3(O)C(=O)C(C(N)=O)=C(O)[C@@H](N(C)C)[C@@H]3[C@@H](O)[C@@H]21.Cl.Cl.O [Doxycycline Hyclate, reference compound] and give its recorded Munsell Classification.
10Y 9/3.5 NN

Give Munsell Classification for the following molecule: CN(C)C1C(O)=C(C(N)=O)C(=O)C2(O)C(O)=C3C(=O)c4c(O)cccc4C(C)(O)C3CC12.O=C(O)C(=O)O (stereo not shown) [Tetracycline Oxalate]
10Y/9/8 NN

Give reported Munsell Classification value for C[C@H]1c2cccc(O)c2C(=O)C2=C(O)[C@]3(O)C(=O)C(C(N)=O)=C(O)[C@@H](N(C)C)[C@@H]3[C@@H](O)[C@@H]21 [Doxycycline Monohydrate, reference compound]
10Y/9/3.5 NN

* * *

Experiment: Solubility in buffers at pH 1.0, 1.2, 4.5, 6.8 and 7.5
Format: physicochemical
Conditions: buffer pH 7.5, monobasic potassium phosphate 0.2 M / NaOH 0.2 M
For each record, write down the corresponding Solubility pH = 7.5 (volume of solvent required for dissolution per gram of solute).
Expressed in ml/g, but write only the number.

Give the reported value of Solubility pH = 7.5 (volume of solvent required for dissolution per gram of solute) for this record: CCO.C[C@H]1c2cccc(O)c2C(=O)C2=C(O)[C@]3(O)C(=O)C(C(N)=O)=C(O)[C@@H](N(C)C)[C@@H]3[C@@H](O)[C@@H]21.C[C@H]1c2cccc(O)c2C(=O)C2=C(O)[C@]3(O)C(=O)C(C(N)=O)=C(O)[C@@H](N(C)C)[C@@H]3[C@@H](O)[C@@H]21.Cl.Cl.O [Doxycycline Hyclate, reference compound]
100

// Input: CC1c2cccc(O)c2C(O)=C2C(=O)C3(O)C(O)=C(C(N)=O)C(=O)C(N(C)C)C3C(O)C21.O=C(O)C=CC(=O)O (stereo not shown) [Doxycycline Maleate] . Output its Solubility pH = 7.5 (volume of solvent required for dissolution per gram of solute) only.
77

Determine from records and report Solubility pH = 7.5 (volume of solvent required for dissolution per gram of solute) for C[C@H]1c2cccc(O)c2C(=O)C2=C(O)[C@]3(O)C(=O)C(C(N)=O)=C(O)[C@@H](N(C)C)[C@@H]3[C@@H](O)[C@@H]21 [Doxycycline Monohydrate, reference compound]
1000

Specify reported Solubility pH = 7.5 (volume of solvent required for dissolution per gram of solute) for the compound shown: C[C@H]1c2cccc(O)c2C(O)=C2C(=O)[C@]3(O)C(O)=C(C(N)=O)C(=O)[C@@H](N(C)C)[C@@H]3[C@@H](O)[C@@H]21.O=C(O)C(=O)O [Doxycycline Oxalate]
143

* * *

For each of the compounds below, state its Solubility pH = 1.2 (volume of solvent required for dissolution per gram of solute).
Test: Solubility in buffers at pH 1.0, 1.2, 4.5, 6.8 and 7.5
Assay type: physicochemical
Conditions: buffer pH 1.2, KCl 0.2 M / HCl 0.2 M
Unit ml/g implied. Number only.

Give recorded Solubility pH = 1.2 (volume of solvent required for dissolution per gram of solute). CC1c2cccc(O)c2C(O)=C2C(=O)C3(O)C(O)=C(C(N)=O)C(=O)C(N(C)C)C3C(O)C21.O=C(O)C=CC(=O)O (stereo not shown) [Doxycycline Maleate]
13

# return recorded Solubility pH = 1.2 (volume of solvent required for dissolution per gram of solute) for input C[C@H]1c2cccc(O)c2C(O)=C2C(=O)[C@]3(O)C(O)=C(C(N)=O)C(=O)[C@@H](N(C)C)[C@@H]3[C@@H](O)[C@@H]21.O=C(O)C(=O)O [Doxycycline Oxalate]
1900

Tell me measured Solubility pH = 1.2 (volume of solvent required for dissolution per gram of solute) for C[C@H]1c2cccc(O)c2C(=O)C2=C(O)[C@]3(O)C(=O)C(C(N)=O)=C(O)[C@@H](N(C)C)[C@@H]3[C@@H](O)[C@@H]21 [Doxycycline Monohydrate, reference compound] please.
25

Note down Solubility pH = 1.2 (volume of solvent required for dissolution per gram of solute) recorded for CCO.C[C@H]1c2cccc(O)c2C(=O)C2=C(O)[C@]3(O)C(=O)C(C(N)=O)=C(O)[C@@H](N(C)C)[C@@H]3[C@@H](O)[C@@H]21.C[C@H]1c2cccc(O)c2C(=O)C2=C(O)[C@]3(O)C(=O)C(C(N)=O)=C(O)[C@@H](N(C)C)[C@@H]3[C@@H](O)[C@@H]21.Cl.Cl.O [Doxycycline Hyclate, reference compound]
3
